tested on: HEK-293T; assay: Multiplex assay against HEK293T; format: toxicity, cell-based; conditions: human, 24 h, 10 µM, compound concentration 10 uM, replicate 1
parameter: Population Fragmented Nuclei (%)
Quick note: give the figure in %, leave out the unit.

Worked examples follow.
CCCS(=O)(=O)c1nc(NC2CC2)cc(-c2ccc3c(ccn3C3CC(C)(C)NC(C)(C)C3)c2)n1 : 63
CCOc1cc2ncc(C#N)c(Nc3ccc(OCc4ccccn4)c(Cl)c3)c2cc1NC(=O)/C=C/CN(C)C : 25

Using known records, supply Population Fragmented Nuclei (%) for COc1ccc(-c2ccc3c(N4CCOCC4)nc(N4C[C@@H](C)O[C@@H](C)C4)nc3n2)cc1CO
31

* * *

tested on: HEK-293T; experiment: Multiplex assay against HEK293T; format: toxicity, cell-based; conditions: human, 12 h, 1 µM, compound concentration 1 uM, replicate 2
parameter: Total Cell Count

Worked examples follow.
CN1CCN(C(=O)C(C)(C)c2ccc(C(=O)Nc3cn4cc(-c5cc(C(C)(C)C)cc(C(C)(C)C)c5)ccc4n3)cc2)CC1 : 1407
CCCS(=O)(=O)Nc1ccc(F)c(C(=O)c2c[nH]c3ncc(Cl)cc23)c1F : 1750

Using known records, supply Total Cell Count for CN(C)C(=O)C(CCN1CCC(O)(c2ccc(Cl)cc2)CC1)(c1ccccc1)c1ccccc1.Cl [LOPERAMIDE HYDROCHLORIDE]
208

* * *

test system: U2OS; experiment: Multiplex assay against U2OS; assay type: toxicity, cell-based; settings: human, 12 h, 1 µM, compound concentration 1 uM, replicate 1
parameter: Population Mitotic Cells (%)
Quick note: give the figure in %, leave out the unit.

CNc1cc(Oc2cc(C(=O)Nc3cc(N4CCN(C)CC4)cc(C(F)(F)F)c3)ccc2C)ncn1 : 67

Using known records, supply Population Mitotic Cells (%) for Cn1nc(C(F)(F)F)cc1-c1cnc(N2CCc3cc(S(=O)(=O)Nc4c(F)cc(Cl)cc4F)cc(N4CCCC4=O)c32)nc1
72

Using known records, supply Population Mitotic Cells (%) for CCCS(=O)(=O)Nc1ccc(F)c(C(=O)c2c[nH]c3ncc(Cl)cc23)c1F
44

Using known records, supply Population Mitotic Cells (%) for CN1CCN(C(=O)C(C)(C)c2ccc(C(=O)Nc3cn4cc(-c5cc(C(C)(C)C)cc(C(C)(C)C)c5)ccc4n3)cc2)CC1
75

Using known records, supply Population Mitotic Cells (%) for CCn1cc(-c2ccnc3[nH]c(-c4cccc(CN(C)C)c4)cc23)c(-c2ccc(NC(=O)N(C)C)cc2)n1
75

* * *

system: Fibroblast; experiment: Multiplex assay against human fibroblast; type: toxicity, cell-based; conditions: 48 h, 1 µM, compound concentration 1 uM, replicate 1
Listing of entries alongside the reported Population Normal (%).

Using known records, supply Population Normal (%) for CCOc1cc2ncc(C#N)c(Nc3ccc(OCc4ccccn4)c(Cl)c3)c2cc1NC(=O)/C=C/CN(C)C
81%

Using known records, supply Population Normal (%) for CN1C2CCC1CC(OC(c1ccc(F)cc1)c1ccc(F)cc1)C2.Cl (stereo not drawn)
86%

Using known records, supply Population Normal (%) for CNc1cc(Oc2cc(C(=O)Nc3cc(N4CCN(C)CC4)cc(C(F)(F)F)c3)ccc2C)ncn1
84%

* * *

tested on: U2OS; experiment: Multiplex assay against U2OS; format: toxicity, cell-based; details: human, 12 h, 1 µM, compound concentration 1 uM, replicate 1
Parameter threshold = 9%. Response is TRUE when Population Pyknosed Nuclei (%) meets or exceeds it, else FALSE.

Completed entries (count: 6):
COc1ccc(S(=O)(=O)N(CCO)c2ccccc2CN(C)C/C=C/c2ccc(Cl)cc2)cc1.O=P(O)(O)O : TRUE
CCCS(=O)(=O)Nc1ccc(F)c(C(=O)c2c[nH]c3ncc(Cl)cc23)c1F [PLX-4720] : FALSE
NC(=O)c1cccc(-c2cc(Nc3ccc(OC(F)(F)F)cc3)ncn2)c1 : FALSE
CNc1cc(Oc2cc(C(=O)Nc3cc(N4CCN(C)CC4)cc(C(F)(F)F)c3)ccc2C)ncn1 : TRUE
Cc1cc(C)c(S(=O)(=O)N(Cc2ccc(-c3cccc(S(C)(=O)=O)c3)cc2)Cc2ccc(C(F)(F)F)o2)c(C)c1 : FALSE
Cc1ccc(C(=O)Nc2cccc(C(F)(F)F)c2)cc1Nc1nc(-c2cccnc2)nc2c1cnn2C : TRUE

Quick check, Population Pyknosed Nuclei (%) >= 9%? CN(C)C(=O)C(CCN1CCC(O)(c2ccc(Cl)cc2)CC1)(c1ccccc1)c1ccccc1.Cl [LOPERAMIDE HYDROCHLORIDE]
TRUE

Quick check, Population Pyknosed Nuclei (%) >= 9%? O=C(Cc1ccc(-c2ccc(OCCN3CCOCC3)cc2)cn1)NCc1ccccc1 [TIRBANIBULIN]
TRUE

* * *

Listing of entries alongside the reported Population Healthy Nuclei (%).
tested on: Fibroblast; experiment: Multiplex assay against human fibroblast; format: toxicity, cell-based; conditions: 24 h, 1 µM, compound concentration 1 uM, replicate 2
Report as: number unit

CN1CCC(=C2c3ccccc3CC(=O)c3sccc32)CC1.O=C(O)/C=C/C(=O)O [KETOTIFEN FUMARATE] : 86%
Cl.O=C(c1ccc(Nc2nccc(-c3cc4ccccc4s3)n2)cc1)N1CCC(N2CCCC2)CC1 : 34%
CCN1CCN(c2ccc(Nc3cc(N(C)C(=O)Nc4c(Cl)c(OC)cc(OC)c4Cl)ncn3)cc2)CC1 : 27%
COc1cc(N2CCN(C)CC2)ccc1Nc1ncc2c(n1)N(C)c1ccccc1C(=O)N2C : 75%
CCc1cccc(CC)c1NC(=O)c1nn(C)c2c1CCc1cnc(Nc3ccc(C(=O)NC4CCN(C)CC4)cc3OC(F)(F)F)nc1-2 : 81%

Using known records, supply Population Healthy Nuclei (%) for Cn1nc(C(F)(F)F)cc1-c1cnc(N2CCc3cc(S(=O)(=O)Nc4c(F)cc(Cl)cc4F)cc(N4CCCC4=O)c32)nc1
26%

Using known records, supply Population Healthy Nuclei (%) for CN(C)C(=O)C(CCN1CCC(O)(c2ccc(Cl)cc2)CC1)(c1ccccc1)c1ccccc1.Cl [LOPERAMIDE HYDROCHLORIDE]
71%

Using known records, supply Population Healthy Nuclei (%) for O=C(Nc1ccc(-n2nc(-c3cccnc3)cc2C(F)(F)F)cn1)c1ccc(-c2ccccc2)c(F)c1
83%

Using known records, supply Population Healthy Nuclei (%) for CN1CCN(C(=O)C(C)(C)c2ccc(C(=O)Nc3cn4cc(-c5cc(C(C)(C)C)cc(C(C)(C)C)c5)ccc4n3)cc2)CC1
48%

Using known records, supply Population Healthy Nuclei (%) for COc1cc2ncnc(Nc3ccc(F)c(Cl)c3)c2cc1NC(=O)/C=C/CN1CCCCC1 [DACOMITINIB ANHYDROUS]
40%

Using known records, supply Population Healthy Nuclei (%) for CCN1CCN(Cc2ccc(Nc3ncc(F)c(-c4cc(F)c5nc(C)n(C(C)C)c5c4)n3)nc2)CC1.CS(=O)(=O)O
61%

Using known records, supply Population Healthy Nuclei (%) for CCn1c(=O)c(-c2ccc(-c3cncs3)cc2Cl)cc2cnc(Nc3ccc(N4CCN(C)CC4)cc3)nc21
68%

Using known records, supply Population Healthy Nuclei (%) for CNC(=O)c1ccc(Nc2nc(OC3CCCC3)c3c(-c4ccc5nc(C)oc5c4)c[nH]c3n2)c(OC)c1
35%

Using known records, supply Population Healthy Nuclei (%) for C=C1/C(=C\C=C2/CCC[C@]3(C)[C@@H]([C@H](C)/C=C/[C@H](C)C(C)C)CC[C@@H]23)C[C@@H](O)C[C@@H]1O
86%

Using known records, supply Population Healthy Nuclei (%) for Cc1cn(-c2cc(NC(=O)c3ccc(C)c(Nc4nccc(-c5cccnc5)n4)c3)cc(C(F)(F)F)c2)cn1
79%

Using known records, supply Population Healthy Nuclei (%) for CCCS(=O)(=O)Nc1ccc(F)c(C(=O)c2c[nH]c3ncc(Cl)cc23)c1F
34%

* * *

Listing of entries alongside the reported Population Normal (%).
tested on: U2OS; experiment: Multiplex assay against U2OS; assay type: toxicity, cell-based; settings: human, 24 h, 10 µM, compound concentration 10 uM, replicate 2
Quick note: give the figure in %, leave out the unit.

COc1cc(N2CCN(C)CC2)ccc1Nc1ncc2c(n1)N(C)c1ccccc1C(=O)N2C : 91
CN(C)C(=O)C(CCN1CCC(O)(c2ccc(Cl)cc2)CC1)(c1ccccc1)c1ccccc1.Cl [LOPERAMIDE HYDROCHLORIDE] : 89
NC(=O)c1cccc(-c2cc(Nc3ccc(OC(F)(F)F)cc3)ncn2)c1 : 92
Cc1cn(-c2cc(NC(=O)c3ccc(C)c(Nc4nccc(-c5cccnc5)n4)c3)cc(C(F)(F)F)c2)cn1 [NILOTINIB] : 97
CCc1cccc(CC)c1NC(=O)c1nn(C)c2c1CCc1cnc(Nc3ccc(C(=O)NC4CCN(C)CC4)cc3OC(F)(F)F)nc1-2 : 97

Please find the next compound below.
Using known records, supply Population Normal (%) for O=C(Nc1ccc(Cl)cc1)Nc1cccc(-c2cccc(N3CCCC3)n2)c1
74
